# CC50 at 48 h listing for each entry below
# ASSAY PROTOCOL: Cytotoxicity measurement by MTT assay
# Assay type: cell-based
# MEASUREMENT PARAMETERS: Chinese hamster

COMPOUND: CC(=O)NC[C@H]1CN(c2ccc(N3CCOCC3)c(F)c2)C(=O)O1 [Linezolid, linezolid, reference compound]
CC50 at 48 h: > 130 µM
--
COMPOUND: COC(=S)NC[C@H]1CN(c2ccc(N3C=NN(C=O)CC3)c(F)c2)C(=O)O1
CC50 at 48 h: > 130 µM
--
COMPOUND: COC(=S)NC[C@H]1CN(c2ccc(N3C=NOCC3)cc2)C(=O)O1
CC50 at 48 h: > 130 µM
--
COMPOUND: Cn1nnc(-c2ccc(-c3ccc(N4C[C@H](CO)OC4=O)cc3F)cn2)n1 [TR-700, reference compound]
CC50 at 48 h: 28 µM
--
COMPOUND: CN1CCN(c2ccc(N3C[C@H](CO)OC3=O)cc2F)C=N1
CC50 at 48 h: > 130 µM
--
COMPOUND: CN1CCN(c2ccc(N3C[C@H](Cn4ccnn4)OC3=O)cc2F)C=N1
CC50 at 48 h: > 130 µM
